- Tested on: rodent lifetime carcinogenesis bioassay, tumor incidence TD50
- test_details: carcinogenic potency in animals, long-term in vivo studies, CPDB compilation (AID 1745844)
- measurement_parameters: rat; strain Fischer 344; females; by gavage; site: palate + tongue; lesion: squamous-cell papilloma; dosed 103 weeks; study length 105 weeks
Activity calls are given as the source filed them. The rule behind the calls is not given here.

| line_notation | TD50 |
| --- | --- |
| COc1c2occc2cc2ccc(=O)oc12 | 333 mg/kg/day (inactive) |

* * *

- Tested on: rodent lifetime carcinogenesis bioassay, tumor incidence TD50
- test_details: carcinogenic potency in animals, long-term in vivo studies, CPDB compilation (AID 1745844)
- measurement_parameters: mouse; strain B6C3F1; males; inhaled; site: any site (literature study); lesion: several types; types named in the paper; dosed 130 weeks; study length 130 weeks

| line_notation | endpoint_unit | TD50 |
| --- | --- | --- |
| O=[O+][O-] | mg/kg/day | 1.54 |

Sourced from PubChem BioAssay AID1745844
